Assay: yeast display, Sf9 membrane polyspecificity reagent, FACS + sequencing; frameworks hold sequencing errors
Result Type: polyreactivity (PSR sort gate)

Request: Which polyreactivity (PSR sort gate) is reported for this sequence? `QVQLVESGGGLVQAGGSLRLSCAASGRTIEYNAMGWYRQAPGKEREFVAAITYSGGGTYYADSVKGRFTISRDNAKNTVYLQMNSLKPEDTAVYYCARERTRVHKHYYWGQGTQVTVSS`
Response: low polyreactivity

Request: Also `HVQLVESGGGLVQAGGSLRLSCAASGSNFDKYAMGGYRQAPGKERELGAAISRGGSSTYYADSVKGRFTISRDNAKNTVYLQMNSLKPEDTAVYYCAARIRNWPAMDYWGQGTQVTVSS` , if possible.
Response: high polyreactivity

Request: Also `QVQLVESGGGLVQAGGSLRLSCAASGSIFVYNAMGWYRQAPGKEREFVAAITKRVGRTYYADSVKGRFTISRDNAKNTVYLQMNSLKPEDTAVYYCAAVLSYTGGFDYWGQGTQVTVSS` , if possible.
Response: high polyreactivity

Request: Also `QVQLVESGGGLVQAGGSLRLSLAASGSIFARYAMGWYRQAPGKERELVAAITYTGGRTYYADSVKGRFTISSDYAKNTVYLKMNSLKPEDTAVFYCAKDGQATVRRGYDYWGQGTQVTVSS` , if possible.
Response: high polyreactivity

Request: Also `QVQLVESGGGLVQAGGSLRLSCAASGRIFYRYAMGWYRQAPGKERELVAAITRGGRTNYADSVKGRFTISRDNAQNTVYLQMNSLKPEDTAVYYCRPLWYGFDYWGQGTQVTVSS` , if possible.
Response: high polyreactivity

Request: Also `QDQLVESGGGLVQAGGSLRLSCAASGPIFRSYAMGWYRQAPGKEMELVAAISRSGGSTYYADSVKGRFSISRDNAKNSVYLHMNSLKPEDSAVYYCAADYILLGGRRKFDSWGQGTQVTVSS` , if possible.
Response: low polyreactivity

Request: Also `QVQLVESGGGLVQAGGSLRLSCAASGITFTKYVMGWYRQAPGKERELVATIRWGASSTHYADSVKGRFRISRDNAKNTVYFQMNSLKPEDTAVYYCNADCWYGAVYWWFYGFDYWGQGTQVTVSS` , if possible.
Response: low polyreactivity

Request: Also `QVQLLESGGGIVQAGGSLRLSCAASGRTFSRYVMGWYRQAPGKERELVATISRSGGSTFYADSVKGRFTISRDNAKNTVYLQMNSLKPEDTAVYYCNKKVQGYQVTYGYWGQGTQVTVSS` , if possible.
Response: high polyreactivity

Further cases:
Request: Which polyreactivity (PSR sort gate) is reported for this sequence? `QVQLVESGGGVVQAGGSLRLSCAASGRICVRYAMGWYRQAPGKERELVAAISTRGGSTYYADSVKGRFTISRDNAKYTVYFQMNSLKPEDTAVYYCAARGVGPQPGYQRFNYWGQGTQVTVSS`
Response: high polyreactivity

Request: Also `QVQLVESGGCLVQAGGSLRLSCAASGRTFRYYAMGWYRQAPGKERELVAAITGGGGSTYYADSVKGRFTISRDNAKNTVYLQMNSLKPEDTAVYYCNKLRYKQWGAQYPMDYWGQGTQVTVSS` , if possible.
Response: high polyreactivity

// data source = the nanobody polyreactivity screen of Harvey et al. (2022)
